Test system: 1079 glioblastoma neurosphere line
testDetails: CellTiter-Glo in vitro proliferation assay
Type: cell-based
testContext: Homo sapiens, 1079
Method: A Biospherix X3, hypoxic incubation system, was maintained at 37° C., 1% 02, 5% CO2, and 94% N2 (Biospherix, Ltd—Parish, NY) to conduct in vitro hypoxic experiments. […] Glioblastoma neurosphere lines were plated in 96-well plates at 25,000 cells per well in […] of media and treated with compound 1 in the presence or absence of 100 μM uridine. […] Luminescence was determined using a Cytation 5 reader and Gen5 software package (BioTek, Winooski, VT, USA). […]
parameter: IC50 (µM)
Please respond with the number in µM and leave the unit unwritten.

In: Report IC50 for CCn1c(CO)nn(-c2cc(O[C@@H](C)C(F)(F)F)c(C(=O)Nc3c(F)cccc3Cl)cc2F)c1=O [Compound 1] please.
Out: 1.2

###

Tested on: Mayo6 glioblastoma neurosphere line
testDetails: CellTiter-Glo in vitro proliferation assay
Format: cell-based
testContext: Homo sapiens, 72 h, Mayo6, hypoxia
parameter: IC50 (µM)
Please respond with the number in µM and leave the unit unwritten.

In: Report IC50 for CCn1c(CO)nn(-c2cc(O[C@@H](C)C(F)(F)F)c(C(=O)Nc3c(F)cccc3Cl)cc2F)c1=O [Compound 1] please.
Out: 228

###

System: 913 glioblastoma neurosphere line
testDetails: CellTiter-Glo in vitro proliferation assay
Type: cell-based, human
testContext: Homo sapiens, 913, uridine rescue experiment, compound 1 alone, normoxia and hypoxia
pIC50: −log10 of the molar value.
parameter: pIC50

In: Report pIC50 for `CCn1c(CO)nn(-c2cc(O[C@@H](C)C(F)(F)F)c(C(=O)Nc3c(F)cccc3Cl)cc2F)c1=O` please.
Out: 8.00 to 9.00

###

Tested on: Mayo15 glioblastoma neurosphere line
testDetails: CellTiter-Glo in vitro proliferation assay
Assay type: cell-based
testContext: Homo sapiens, 72 h, Mayo15, hypoxia
parameter: pIC50
# pIC50 = -log10(concentration in molar units)

In: Report pIC50 for `CCn1c(CO)nn(-c2cc(O[C@@H](C)C(F)(F)F)c(C(=O)Nc3c(F)cccc3Cl)cc2F)c1=O` please.
Out: 3.84

###

Tested on: 913 glioblastoma neurosphere line
testDetails: CellTiter-Glo in vitro proliferation assay
Type: cell-based, human
testContext: Homo sapiens, 72 h, 913, hypoxia (1% oxygen), 72 hours
parameter: IC50 (nM)
Please respond with the number in nM and leave the unit unwritten.

In: Report IC50 for CCn1c(CO)nn(-c2cc(O[C@@H](C)C(F)(F)F)c(C(=O)Nc3c(F)cccc3Cl)cc2F)c1=O [Compound 1] please.
Out: 6.7
